- assayTarget: Luciferin 4-monooxygenase (Photinus pyralis)
- assayName: firefly luciferase enzyme inhibitors, primary screen, biochemical, luminescence, purified enzyme, 2006 set (AID 1141);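 also: cell-free assay with purified firefly luciferase at 100 ng per well in PBS; test concentration not given here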
- conditionsUsed: SteadyGlo luminescence, 30 min, higher = more signal, called active from +8 up or from −8 down
measurementType: z-score
Just the number, please, no unit after it.

Ask | Form field: reported z-score of `COC(=O)[C@]1(Cc2ccccc2N=[N+]=[N-])N=C(c2ccc(OCCCO)cc2)O[C@@H]1c1ccccc1CN=[N+]=[N-]`
Reply | -0.232

Ask | Input COc1ccc(NN2C(C(O)c3ccccc3)C=CC3C(=O)N(C4CCCCC4)C(=O)C32)cc1 (centres undefined)
Reply | -0.684

Ask | Input CC(C)C[C@H]1NC(=O)CNC(=O)[C@@]23C(=O)N[C@@H](Cc4ccccc4)C2[C@H](C)[C@@]2(C)O[C@H]2C3/C=C/C/C=C\CNC1=O (some centres undefined)
Reply | 0.151

Ask | Input `COC(=O)[C@@]1(Cc2ccc(OC)cc2)[C@@H]2[C@@H](CC(=O)[C@H]2CC(=O)C(=O)N(C)C)CN1C(=O)c1ccccc1`
Reply | -0.273

Origin of measurements: PubChem BioAssay
